The reported measurements were obtained from patent US20250361322A1.

Target: human Tissue Factor (TF) (human, UniProt P13726 33-295)
Test: cell-based or functional assay
Reported % GM-CSF at 100 nM antibody values are given for each entry in this list.
assay-endpoint: % GM-CSF at 100 nM antibody

binder="39A (antibody, human IgG1, V domains shown, Human IgG1; also called antibody designated 39A) VH: QVQLVQSGAEVKKPGSSVKVSCKASGGTFSSNAIGWVRQAPGQGLEWMGSIIPIIGFANYAQKFQGRVTITADESTSTAYMELSSLRSEDTAVYYCARDSGYYYGASSFGMDVWGQGTTVTVSS VL: EIVMTQSPATLSVSPGERATLSCRASQSVSSNLAWYQQKPGQAPRLLIYGASTRATGIPARFSGSGSGTEFTLTISSLQSEDFAVYYCEQYNNLPLTFGGGTKVEIK" measurement=7%
binder="54E (antibody, human IgG1, V domains shown, Human IgG1; also called antibody designated 54E) VH: QVQLVQSGAEVKKPGASVKVSCKASGYTFANYYMHWVRQAPGQGLEWMGIINPSGGITVYAQKFQGRVTMTRDTSTSTVYMELSSLRSEDTAVYYCARGGSKVAALAFDIWGQGTMVTVSS VL: DIQMTQSPSSLSASVGDRVTITCQASQDISNSLNWYQQKPGKAPKLLIYDASNLETGVPSRFSGSRSGTDFTFTISSLQPEDIATYYCQQYNFHPLTFGGGTKVEIK" measurement=5%
binder="25G (antibody, human IgG1, V domains shown, Human IgG1; also called antibody designated 25G) VH: QVQLVQSGAEVKKPGASVKVSCKASGYTFRSYGISWVRQAPGQGLEWMGWVAPYNGNTNYAQKLQGRVTMTTDTSTSTAYMELRSLRSDDTAVYYCARDAGTYSPYGYGMDVWGQGTTVTVSS VL: DIQMTQSPSTLSASVGDRVTITCRASQSISSWLAWYQQKPGKAPKLLIYKASSLESGVPSRFSGSGSGTEFTLTISSLQPDDFATYYCQQFQSLPPFTFGGGTKVEIK" measurement=19%
